assay: Antiproliferative activity against human SJG2 cells assessed as cell growth inhibition at 25 uM incubated for 72 hrs by MTT assay relative to control; assay type: functional; settings: SJ-G2
Binary classification by inhibition at 25 µM, with 40% as an inclusive lower bound for 1.0; all other cases are 0.0.

[
  {
    "molecule": "O=c1[nH]c(-c2ccccc2Br)nc2ccccc12",
    "category.label": 0.0
  },
  {
    "molecule": "O=C1NC(/C=C/c2ccccc2[N+](=O)[O-])Nc2ccccc21 (configuration not stated)",
    "category.label": 1.0
  },
  {
    "molecule": "Oc1nc(-c2ccncc2)nc2ccccc12",
    "category.label": 0.0
  },
  {
    "molecule": "O=C1NC(c2ccc3nsnc3c2)Nc2ccccc21 (configuration not stated)",
    "category.label": 0.0
  },
  {
    "molecule": "O=C1NC(/C(Br)=C/c2ccccc2)Nc2ccccc21 (configuration not stated)",
    "category.label": 1.0
  },
  {
    "molecule": "COC(=O)c1cccc(/C=C/c2nc3ccccc3c(=O)[nH]2)c1",
    "category.label": 1.0
  },
  {
    "molecule": "O=C1NC(c2ccccc2C(=O)O)Nc2ccccc21 (configuration not stated)",
    "category.label": 1.0
  },
  {
    "molecule": "O=c1[nH]c(/C=C/c2cccc(O)c2)nc2ccccc12",
    "category.label": 1.0
  },
  {
    "molecule": "O=C1NC(C2CCCCC2)Nc2ccccc21 (configuration not stated)",
    "category.label": 0.0
  },
  {
    "molecule": "O=C1NC(c2ccccc2Br)Nc2ccccc21 (configuration not stated)",
    "category.label": 1.0
  },
  {
    "molecule": "O=C1NC(c2ccc([N+](=O)[O-])cc2)Nc2ccccc21 (configuration not stated)",
    "category.label": 1.0
  },
  {
    "molecule": "O=C1NC(c2cc(O)c(O)c(O)c2)Nc2ccccc21 (configuration not stated)",
    "category.label": 0.0
  }
]
